Tested on: K562
Procedure summary: Antiproliferative activity against human K562 cells assessed as inhibition of cell growth
Assay type: functional, cell-based
pIC50: −log10 of the molar value. Where a name gives a salt, the structure may show the parent alone.
Readout label: pIC50

The measured pIC50 associated with COc1cccc2c1C(=O)c1c(O)c3c(c(O)c1C2=O)C[C@@](O)(C(=O)CO)C[C@@H]3O[C@H]1C[C@H](N)[C@H](O)[C@H](C)O1 [DOXORUBICIN HYDROCHLORIDE] reads 6.47

(A) CC(C)c1ccc(N2C(=O)C=CC2OCC(F)(F)F)cc1 (stereo not drawn)
(B) O=C1C=CC(OCC(F)(F)F)N1c1ccc(Br)cc1 (stereo not drawn)
Problem: Between the entries labeled A and B , whose measured pIC50 is lower? Identify your selection by its label.
Solution: A

(A) O=C1C=CC(OCC(F)(F)F)N1c1ccc([N+](=O)[O-])cc1 (stereo not drawn)
(B) O=C1C=CC(OCC(F)(F)F)N1c1ccc(C(F)(F)F)cc1 (stereo not drawn)
Problem: Name the one with the greater pIC50 value, either A or B as given. Identify your selection by its label.
Solution: A
(A: 5.82, B: 4.88)

(a) O=C1C=CC(OCC(F)(F)F)N1c1ccc(F)c(Cl)c1 (stereo not drawn)
(b) O=C1C=CC(OCC(F)(F)F)N1c1ccccc1 (stereo not drawn)
(c) CC(C)NC1CC(=O)N(c2ccc(F)c(Cl)c2)C1OCC(F)(F)F (stereo not drawn)
(d) O=C1C=CC(OCC(F)(F)F)N1c1cc(Cl)cc(Cl)c1 (stereo not drawn)
Problem: Order by pIC50, ascending. Please respond by ranking the labels in the order requested.
Solution: b, c, a, d

(1) O=C1C=CC(OCC(F)(F)F)N1c1ccc(Cl)cc1F (stereo not drawn)
(2) O=C1C=CC(OCC(F)(F)F)N1c1ccccc1F (stereo not drawn)
Problem: Between the entries labeled 1 and 2 , whose measured pIC50 is lower? Identify your selection by its label.
Solution: 2
(2: 4.92, 1: 5.21)

(P) Cc1ccc(N2C(=O)C=CC2OCC(F)(F)F)cc1 (stereo not drawn)
(Q) COC(=O)c1ccc(N2C(=O)C=CC2OCC(F)(F)F)cc1 (stereo not drawn)
Problem: Between the entries labeled P and Q , whose measured pIC50 is lower? Identify your selection by its label.
Solution: Q
(Q: 4.83, P: 5.15)

---

Procedure summary: Cytotoxicity against human L02 cells assessed as cell viability at 2 ug/ml relative to control
Type: toxicity, cell-based
Particulars: at 2 µg/mL, read-out: Activity
Readout label: viability at 2 ug/ml (%)
The reply should contain only the number, in %.

The measured viability at 2 ug/ml associated with O=C1C=CC(OCC(F)(F)F)N1c1ccc(F)c(Cl)c1 (centres undefined) reads 58

The measured viability at 2 ug/ml associated with CC(C)(C)c1ccc(N2C(=O)C=CC2OCC(F)(F)F)cc1 (centres undefined) reads 81

The measured viability at 2 ug/ml associated with CC(C)NC1CC(=O)N(c2ccc(F)c(Cl)c2)C1OCC(F)(F)F (centres undefined) reads 102

The measured viability at 2 ug/ml associated with O=C1C=CC(OCC(F)(F)F)N1c1cc(F)cc(F)c1 (centres undefined) reads 66

---

Test system: K562
Procedure summary: Antiproliferative activity against human K562 cells assessed as inhibition of cell growth
Format: functional, cell-based
pIC50: −log10 of the molar value.
Readout label: pIC50

The measured pIC50 associated with O=C1C=CC(OC(C(F)(F)F)C(F)(F)F)N1c1ccc(Cl)cc1 (stereo not given) reads 5.35

The measured pIC50 associated with CCc1ccc(N2C(=O)C=CC2OCC(F)(F)F)cc1 (stereo not given) reads 5.35

The measured pIC50 associated with CC(C)(C)c1ccc(N2C(=O)C=CC2OCC(F)(F)F)cc1 (stereo not given) reads 7.15

The measured pIC50 associated with O=C1C=CC(OCC(F)(F)F)N1c1cc(F)cc(F)c1 (stereo not given) reads 6.28

The measured pIC50 associated with `O=C1c2c(O)ccc(O)c2C(=O)c2c(NCCNCCO)ccc(NCCNCCO)c21` reads 6.85
